assay.target: Lysine-specific demethylase 5B (Homo sapiens) (UniProt Q9UGL1)
Sequence (Q9UGL1 whole entry, looked up): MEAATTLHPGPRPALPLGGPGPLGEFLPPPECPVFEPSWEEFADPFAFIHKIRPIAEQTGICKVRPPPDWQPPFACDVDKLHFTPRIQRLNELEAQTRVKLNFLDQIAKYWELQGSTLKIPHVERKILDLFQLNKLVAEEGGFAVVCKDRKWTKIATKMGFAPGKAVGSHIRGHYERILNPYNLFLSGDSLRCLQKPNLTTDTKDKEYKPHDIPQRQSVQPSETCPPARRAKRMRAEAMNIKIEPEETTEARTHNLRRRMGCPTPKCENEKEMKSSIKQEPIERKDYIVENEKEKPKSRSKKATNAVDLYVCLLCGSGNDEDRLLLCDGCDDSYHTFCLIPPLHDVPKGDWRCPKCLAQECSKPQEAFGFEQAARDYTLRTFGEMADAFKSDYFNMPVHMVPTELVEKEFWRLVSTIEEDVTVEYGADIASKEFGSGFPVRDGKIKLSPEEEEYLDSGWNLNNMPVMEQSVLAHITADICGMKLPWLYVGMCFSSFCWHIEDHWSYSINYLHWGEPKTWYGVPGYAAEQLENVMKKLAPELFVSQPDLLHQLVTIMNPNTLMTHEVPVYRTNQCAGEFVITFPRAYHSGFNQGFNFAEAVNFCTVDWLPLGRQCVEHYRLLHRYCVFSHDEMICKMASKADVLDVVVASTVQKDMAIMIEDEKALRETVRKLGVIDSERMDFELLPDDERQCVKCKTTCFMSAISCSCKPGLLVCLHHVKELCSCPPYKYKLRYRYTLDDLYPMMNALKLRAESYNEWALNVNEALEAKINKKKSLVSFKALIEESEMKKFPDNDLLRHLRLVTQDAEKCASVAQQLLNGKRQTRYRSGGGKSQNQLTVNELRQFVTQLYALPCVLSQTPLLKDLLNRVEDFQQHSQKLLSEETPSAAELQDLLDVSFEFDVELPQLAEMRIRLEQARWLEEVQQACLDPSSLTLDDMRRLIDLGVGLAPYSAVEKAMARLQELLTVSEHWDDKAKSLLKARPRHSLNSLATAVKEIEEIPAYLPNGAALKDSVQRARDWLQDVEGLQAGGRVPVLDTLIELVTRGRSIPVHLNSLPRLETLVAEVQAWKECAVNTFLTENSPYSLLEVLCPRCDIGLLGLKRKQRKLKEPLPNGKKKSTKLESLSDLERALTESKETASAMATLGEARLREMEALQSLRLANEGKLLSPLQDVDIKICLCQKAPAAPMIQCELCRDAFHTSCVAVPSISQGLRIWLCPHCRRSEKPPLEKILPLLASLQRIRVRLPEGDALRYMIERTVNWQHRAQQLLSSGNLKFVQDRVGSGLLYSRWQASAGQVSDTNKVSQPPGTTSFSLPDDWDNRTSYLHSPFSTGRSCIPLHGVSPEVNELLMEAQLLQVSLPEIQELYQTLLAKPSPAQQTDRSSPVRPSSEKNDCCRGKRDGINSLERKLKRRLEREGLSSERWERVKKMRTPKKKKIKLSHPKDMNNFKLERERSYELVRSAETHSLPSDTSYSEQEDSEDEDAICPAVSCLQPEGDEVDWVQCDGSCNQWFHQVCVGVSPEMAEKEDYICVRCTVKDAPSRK
experiment.description: Primary screen for KDM5B Histone Demethylases FDH-coupled qHTS; also: nearly all actives have a fitted effect of over 70% in size
stated.conditions: FDH-coupled NADH fluorescence; series mostly up to 57.7 µM
Out of some 220,000 compounds screened, about 5,700 (2.6%) were called active. Another 18% or so got no clear call; they are omitted. Calls follow the shape of the dose curve; as a rule, active = well fitted inhibition curve with a large enough effect; inconclusive = small, poorly fitted or top-dose-only effect; inactive = no such curve, though single readings can be large or run the other way. This excerpt belongs to a sample that is enriched for actives.
Bench note: report the call from active, inactive

Consider the following illustrative entries.
>  <molecule>
CN(C)C(=O)c1n[nH]c2c1CN(C(=O)c1cccc(C(F)(F)F)c1)CC2

>  <label>
inactive

$$$$
>  <molecule>
CN(C)C(=O)c1cc(-c2cccc(C(F)(F)F)c2)c2nncn2n1

>  <label>
active

$$$$
>  <molecule>
COc1ccc(-c2ccc3ncc(Nc4ccc(C(F)(F)F)cc4)n3n2)cn1

>  <label>
inactive

$$$$
>  <molecule>
O=[S+]([O-])(Nc1cccnc1)c1ccc2c(c1)OCCN(Cc1ccc(F)cc1)C2

>  <label>
inactive

$$$$

Could you now look at the following molecule, please?
Q: Recorded test call requested for Cn1c(=O)[nH]c(=O)c2c1ncn2CC(O)c1ccccc1 (stereo unspecified)
Ans: inactive

###

assay.target: Lysine-specific demethylase 5B (Homo sapiens) (UniProt Q9UGL1)
experiment.description: Primary screen for KDM5B Histone Demethylases FDH-coupled qHTS; also: nearly all actives have a fitted effect of over 70% in size
stated.conditions: FDH-coupled NADH fluorescence; series mostly up to 57.7 µM
Among all 220,000 compounds or so, about 5,700 (2.6%) were called active. Inconclusive results (about 18%) are left out. The call rests on the fitted dose curve; in most records, active means well fitted inhibition curve with a large enough effect; inconclusive means small, poorly fitted or top-dose-only effect; inactive means no such curve, though single readings can be large or run the other way. This is one part of a sample in which actives are shown more often than they occur.
Bench note: report the call from 1 (yes) = active, 0 (no) = inactive

Consider the following illustrative entries.
>  <line.notation>
Cc1sc(NCCC(C)C)nc1-c1ccc(NS(C)(=O)=O)cc1

>  <label>
0 (no)

$$$$
>  <line.notation>
O=C(NNC(=O)C1CCC1)c1ccccc1

>  <label>
0 (no)

$$$$
>  <line.notation>
CSc1ccc(CNC(=O)c2cc3c(N4CCCC4)nc(C)cn3n2)cc1

>  <label>
1 (yes)

$$$$
>  <line.notation>
COc1ccccc1-c1cc(C(=O)N(C)C)nc2c1cnn2C

>  <label>
1 (yes)

$$$$
>  <line.notation>
CSc1ccc(CNC(=O)c2noc(-c3ccc(C)cc3)n2)cc1

>  <label>
0 (no)

$$$$
>  <line.notation>
CCCn1c(CN2CCCCC2)nc2cc(NC(=O)c3cc(OC)c(OC)c(OC)c3)ccc21

>  <label>
0 (no)

$$$$
>  <line.notation>
COc1ccccc1CNC(=O)c1nn(C)c(=O)c2ccccc12

>  <label>
0 (no)

$$$$
>  <line.notation>
CC1(C)CC(=O)C/C(=N/NC(=O)c2ccccc2Br)C1

>  <label>
0 (no)

$$$$
>  <line.notation>
COP(=O)(OC)c1nc(-c2cccs2)oc1NCc1ccc(C)cc1

>  <label>
0 (no)

$$$$
>  <line.notation>
Cc1cn2nc(C(=O)NCc3cccs3)cc2c(N2CCCC2)n1

>  <label>
0 (no)

$$$$

Could you now look at the following molecule, please?
Q: Recorded test call requested for "Cc1cn2nc(C(=O)NCc3ccc(F)cc3)cc2c(N2CCCC2)n1"
Ans: 1 (yes)

###

assay.target: Lysine-specific demethylase 5B (Homo sapiens)
experiment.description: Primary screen for KDM5B Histone Demethylases FDH-coupled qHTS; also: nearly all actives have a fitted effect of over 70% in size
stated.conditions: FDH-coupled NADH fluorescence; series mostly up to 57.7 µM
The campaign covered roughly 220,000 compounds. About 5,700 (2.6%) were called active. About 18% were inconclusive and are not listed. Calls come from the whole dose curve; as a rule, active = well fitted inhibition curve with a large enough effect; inconclusive = small, poorly fitted or top-dose-only effect; inactive = no such curve, though single readings can be large or run the other way. Many of the other results were omitted from the sample, so actives are more common in it than they were.
Bench note: report the call from active, inactive

Q: Recorded test call requested for CC(C)c1ccc(C(=O)OC2CCOC2=O)cc1 (stereo unspecified)
Ans: inactive

Q: Recorded test call requested for "CC1CCN(c2nc3c(c(=O)n(C)c(=O)n3C)n2CC(=O)c2ccc(Br)cc2)CC1"
Ans: inactive

Q: Recorded test call requested for "CC(C)NS(=O)(=O)c1ccc(OCC(=O)NC2CCCCCC2)cc1"
Ans: inactive

Q: Recorded test call requested for "Cn1cc(-c2cnc3n[nH]c(-c4ccccc4)c3n2)cn1"
Ans: active

###

assay.target: Lysine-specific demethylase 5B (Homo sapiens) (UniProt Q9UGL1)
experiment.description: Primary screen for KDM5B Histone Demethylases FDH-coupled qHTS; also: nearly all actives have a fitted effect of over 70% in size; also: potency is read from the fitted curve at half-maximal effect
stated.conditions: FDH-coupled NADH fluorescence; series mostly up to 57.7 µM
From the text: Assay Submitter (PI): Qin Yan, Ph.D. (Yale University) and Xiaodong Cheng, Ph.D. (MD Anderson) This project was funded as part of the NCI NEXT Program and Chemical Biology Consortium (CBC) The histone demethylases, KDM5A and KDM5B catalyze the demethylation of lysine 4 on histone H3 (H3K4me3/2). They are overexpressed in a variety of cancers and have been implicated in cancer cell growth, metastasis, drug resistance, and tumor growth. […]
Out of some 220,000 compounds screened, about 5,700 (2.6%) were called active. About 18% were inconclusive and are not listed. What follows is part of a selection rich in actives, with near analogues and random picks from the rest.
endpoint: Potency

Before answering, review these 5 worked examples.
>  <molecule>
Clc1ccccc1C1(c2ccnc(NCCn3cccn3)n2)CCNCC1

>  <Potency>
28.2 µM (active)

$$$$
>  <molecule>
CC(C)c1nnc(NC(=O)c2cc(Cl)c3c(c2)OCCO3)s1

>  <Potency>
inactive

$$$$
>  <molecule>
Cc1ccc(F)cc1NC(=O)CCc1c[nH]c2ccccc12

>  <Potency>
inactive

$$$$
>  <molecule>
CN(C)C(=O)c1cccnc1OC1CCN(C(=O)Cc2ccc(Cl)cc2)C1 (configuration not stated)

>  <Potency>
inactive

$$$$
>  <molecule>
C/C(=C\c1ccc([N+](=O)[O-])cc1)C(=O)c1ccccc1

>  <Potency>
inactive

$$$$

Q: Consider the molecule shown here: "COc1ccc(OC)c(CCNC(=O)c2nn(C)c3c2CS(=O)(=O)c2ccccc2-3)c1" What is its recorded Potency?
Ans: inactive

Q: Consider the molecule shown here: "Cn1ncc2c(Nc3cccc4c3CCCC4)ncnc21" What is its recorded Potency?
Ans: inactive

Q: Consider the molecule shown here: "Cc1c(C)[n+](=O)c2ccccc2n1[O-]" What is its recorded Potency?
Ans: inactive

Q: Consider the molecule shown here: "S=C(NCCc1ccc(Cl)cc1)Nc1ccc(Oc2ccccc2)cc1" What is its recorded Potency?
Ans: inactive

Q: Consider the molecule shown here: "Cc1n[nH]c(C)c1CCC(=O)N[C@@H]1CN(S(C)(=O)=O)C[C@H]1CN(C)C" What is its recorded Potency?
Ans: inactive

Q: Consider the molecule shown here: "Cc1cc(NC(=O)CSc2nc(=O)cc(N)n2-c2ccc(F)cc2)no1" What is its recorded Potency?
Ans: inactive

Q: Consider the molecule shown here: "Cn1cc(CC(=O)N2CCCc3ncc(C(=O)N4CCCC[C@@H]4c4ccccc4)cc32)c2ccccc21" What is its recorded Potency?
Ans: inactive

Q: Consider the molecule shown here: "CCCCc1nc(SCC(=O)Nc2nnc(C(C)C)s2)n[nH]1" What is its recorded Potency?
Ans: inactive

Q: Consider the molecule shown here: Cc1cccc(C)c1OCC(O)Cn1cnc2c(cnn2-c2ccc(F)cc2)c1=O (configuration not stated) What is its recorded Potency?
Ans: inactive

Q: Consider the molecule shown here: "Cc1ccc(C2(O)CCN(C(=O)c3ccccc3-c3nn[nH]n3)CC2)nc1" What is its recorded Potency?
Ans: inactive

Q: Consider the molecule shown here: "CN(C)C[C@@H]1CN(c2ncccn2)C[C@H]1NC(=O)CCc1ccccc1" What is its recorded Potency?
Ans: 28.2 µM (active)

Q: Consider the molecule shown here: "Cc1ccc(C2(O)CCN(c3nccc(CCC(F)(F)F)n3)CC2)nc1" What is its recorded Potency?
Ans: 22.4 µM (active)

Q: Consider the molecule shown here: "COc1ccc(CNC(=O)N[C@@H]2CN(c3ccncn3)C[C@H]2CN(C)C)cc1" What is its recorded Potency?
Ans: inactive

###

assay.target: Lysine-specific demethylase 5B (Homo sapiens) (UniProt Q9UGL1)
experiment.description: Primary screen for KDM5B Histone Demethylases FDH-coupled qHTS; also: nearly all actives have a fitted effect of over 70% in size
stated.conditions: FDH-coupled NADH fluorescence (FDH is formaldehyde dehydrogenase); series mostly up to 57.7 µM
In all, about 220,000 compounds went through this assay and about 5,700 (2.6%) were called active. About 18% were inconclusive and are not listed. The call rests on the fitted dose curve; in most records, active means well fitted inhibition curve with a large enough effect; inconclusive means small, poorly fitted or top-dose-only effect; inactive means no such curve, though single readings can be large or run the other way. Many of the other results were omitted from the sample, so actives are more common in it than they were.
Bench note: report the call from active, inactive

Consider the following illustrative entries.
>  <molecule>
CN(CC(=O)NCCN1CCOCC1)S(=O)(=O)c1ccc(F)cc1

>  <label>
inactive

$$$$
>  <molecule>
Cc1cccc(C(C(=O)N2CCN(S(=O)(=O)N(C)C)CC2)N(C)C)c1 (stereo unspecified)

>  <label>
inactive

$$$$

Q: Recorded test call requested for "COc1ccc(-c2cc(C(=O)N3CCN(CC(=O)N4CCOCC4)CC3)c3ccccc3n2)cc1"
Ans: inactive

Q: Recorded test call requested for "Cc1c(C(=O)NCCN(C)C)oc2ccc(S(=O)(=O)N3CCCC3)cc12"
Ans: inactive

Q: Recorded test call requested for "COC(=O)[C@@H]1C[C@@H](NC(=O)c2ccc(-c3nnn(C)n3)cc2)CN1C"
Ans: inactive
